System: NCI/ADR-RES ovarian
assay_overview: NCI-60 one-dose screen, 48 h
experimental_context: 10 µM unless noted
Compounds without any hit were thinned out: in the full panel of roughly 83,000, 20% have a hit. Activity calls are given as the source filed them. The calls were made as follows: active = growth percent below 10; inactive = the rest.
Return exactly one item of 1 for active, -1 for inactive

Below, 5 compounds whose answers are already recorded.
[
  {
    "compound": "CC(C)(C)NCC(O)c1ccccc1Cl (stereo not given)",
    "target_entity": "NCI/ADR-RES ovarian",
    "group_label": -1
  },
  {
    "compound": "O=C(Nc1ccc(S(=O)(=O)F)cc1)Oc1ccccc1",
    "target_entity": "NCI/ADR-RES ovarian",
    "group_label": -1
  },
  {
    "compound": "Nc1c(Br)cc([N+](=O)[O-])cc1[N+](=O)[O-]",
    "target_entity": "NCI/ADR-RES ovarian",
    "group_label": -1
  },
  {
    "compound": "O=C1NC(=O)C(O)(C2(O)C(=O)NC(=O)NC2=O)C(=O)N1",
    "target_entity": "NCI/ADR-RES ovarian",
    "group_label": -1
  },
  {
    "compound": "C/C(=N/OC(=O)N(C)C)c1cc(Cl)ccc1Cl",
    "target_entity": "NCI/ADR-RES ovarian",
    "group_label": -1
  }
]

Challenge: Check the results log: what was the call for CNc1ccc(C(=O)CC(O)CCC(C)C2OC(=O)CC(O)CC(=O)CC(O)CC(O)CC(O)CC(O)CC3(O)CC(O)C(C(=O)OC)C(CC(O[C@@H]4O[C@H](C)[C@@H](O)[C@H](N)[C@@H]4O)/C=C/C=C/C=C/C=C/C=C/C=C/C=C/C2C)O3)cc1 (stereo not given in full) ?
Response given: 1

Challenge: Query: recorded result category for Nc1cccc2c1Oc1ccccc1O2 in this test
Response given: -1

Challenge: Field: outcome | Entry: COc1cc(NCCCCCN=C(N)N)c2ncccc2c1
Response given: -1

====

Test system: HL-60(TB) leukemia
assay_overview: NCI-60 one-dose screen, 48 h (100 = growth as untreated, 0 = no growth, -100 = all killed)
experimental_context: 10 µM unless noted
Description: Growth inhibition of the HL-60(TB) human tumor cell line is measured as a screen for anti-cancer activity. Cells are grown in 96 well plates and exposed to the test compound for 48 hours. Compounds are tested at a single concentration, which is 10^-5 M for most compounds. The reported endpoint is percent growth (GI% or GIPRCNT), where numbers from 0 - 100% represent growth inhibition, and numbers from -100% - 0 represent cell death. For example, a value of 40 represents 60% growth inhibition. […]
The panel holds about 83,000 compounds, 20% with a hit somewhere; the sample as a whole holds those more often.
result_type: growth (%)
The reply should be a number in %, with the unit left off.

Worked examples follow.
[
  {
    "compound": "ClCc1cccc(CSc2ncnc3c2ncn3Cc2cccc(CCl)c2)c1",
    "measured": 23.7
  },
  {
    "compound": "Nc1c(Cl)cc([N+](=O)[O-])cc1Br",
    "measured": 101
  },
  {
    "compound": "C[C@H]1C=C(C[C@@H](O)CC#CC#CCCCCC[C@@H](O)[C@H]2CCC(=O)O2)C(=O)O1",
    "measured": 99.1
  }
]

Challenge: Hello, please tell me recorded growth for this one: CC/C=C/[C@@H]1C=C[C@@H]2CCC[C@H]2[C@@H]1CC[C@H](O)[C@H](C)N
Response given: -61.6

Challenge: Identify the reported growth for the following entry. CN(C)c1ncnc2c1ncn2C1CCCCO1 (configuration not stated)
Response given: 96.3

Challenge: Give me measured growth, please, for this compound: CCN(CC)CCCCCCNc1cc(OC)c(Cl)c2cccnc12
Response given: 119

Challenge: Output measured growth for this item: CSC1=C(N)C(=O)c2[nH]cc(CO)c2C1=N
Response given: -28.1

Challenge: Give the reported value of growth for this record: O=c1[nH]c2cc(O)ccc2n2cc3c(F)cccc3c12
Response given: 25.5

====

Tested on: HL-60(TB) leukemia
assay_overview: NCI-60 one-dose screen, 48 h (100 = growth as untreated, 0 = no growth, -100 = all killed)
experimental_context: 10 µM unless noted
About 83,000 compounds went through this panel and 20% of them were active in at least one assay; those are over-represented in the sample as a whole.
result_type: growth (%)
# unit: % | format: bare number

[
  {
    "line_notation": "Cc1ccc(-c2cc(-c3ccccc3)n(-c3ccccc3)n2)cc1",
    "target_entity": "HL-60(TB) leukemia",
    "result_type": "growth",
    "unit_descriptor": "%",
    "measured": 98.5
  },
  {
    "line_notation": "CC(=O)c1sc2sc(C(C)=O)c(C)c2c1C",
    "target_entity": "HL-60(TB) leukemia",
    "result_type": "growth",
    "unit_descriptor": "%",
    "measured": 90.1
  },
  {
    "line_notation": "C[C@@H]1O[C@@H](O[C@@H]2C[C@H](c3ccc4c(c3O)C(=O)C3=C(C4=O)[C@@]4(O)C(=O)C[C@](C)(O)C[C@@]4(O)C=C3)O[C@H](C)[C@H]2O)C[C@H](O)[C@@H]1O",
    "target_entity": "HL-60(TB) leukemia",
    "result_type": "growth",
    "unit_descriptor": "%",
    "measured": 99.5
  }
]

Challenge: Item CCCCN1CCN(c2ccc3nc(-c4ccc5nc(-c6ccc(OCC)cc6)[nH]c5c4)[nH]c3c2)CC1 : provide growth
Response given: 34.3

====

Tested on: HL-60(TB) leukemia
assay_overview: NCI-60 one-dose screen, 48 h (100 = growth as untreated, 0 = no growth, -100 = all killed)
experimental_context: 10 µM unless noted
About 83,000 compounds went through this panel and 20% of them were active in at least one assay; those are over-represented in the sample as a whole.
// label = 1 if growth is not less than 50%, otherwise 0

See these solved cases before continuing.
[
  {
    "molecule": "C=C(C)[C@@H]1CC[C@]2(C(=O)O)CC[C@]3(C)[C@H](CC[C@@H]4[C@@]5(C)C[C@@H](CC#Cc6ccc(Br)cc6)C(=O)C(C)(C)[C@@H]5CC[C@]43C)[C@@H]12",
    "target_entity": "HL-60(TB) leukemia",
    "group_label": 0
  },
  {
    "molecule": "O=c1oc2ccc(I)cc2c(=O)n1-c1ccc(F)cc1F",
    "target_entity": "HL-60(TB) leukemia",
    "group_label": 0
  },
  {
    "molecule": "O=C(/C=C/C12c3ccccc3C(c3ccccc31)C1C(=O)NC(=O)C12)c1ccc(Cl)cc1Cl (centres undefined)",
    "target_entity": "HL-60(TB) leukemia",
    "group_label": 0
  },
  {
    "molecule": "O=C1Nc2ccccc2C12CC(c1ccc(Cl)cc1)=NN2 (centres undefined)",
    "target_entity": "HL-60(TB) leukemia",
    "group_label": 1
  },
  {
    "molecule": "Cc1cc(C(C#N)c2ccc(Cl)cc2)c(Cl)cc1NC(=O)c1cc(I)cc(I)c1O (centres undefined)",
    "target_entity": "HL-60(TB) leukemia",
    "group_label": 0
  },
  {
    "molecule": "COC(=O)[C@]1(C)CCC[C@]2(C)[C@H]3C[C@H]4C(C(C)C)=C[C@]3(CC[C@H]21)[C@@H]1C(=O)CC[C@H](OCCC#N)[C@@H]14",
    "target_entity": "HL-60(TB) leukemia",
    "group_label": 1
  }
]

Challenge: Is reported growth greater than or equal to 50% here: Cc1cccc(C)c1Nc1nnc(-c2ccc(F)cc2)o1
Response given: 1

Challenge: Answer whether growth of Cc1cc(N/C=c2\sc3ncnn3c2=O)no1 is greater than or equal to 50%.
Response given: 1

Challenge: Would you say C=C1C(=O)O[C@H]2[C@H]1CC/C(CNC(=O)C(C)c1ccc(CC(C)C)cc1)=C\CC[C@@]1(C)O[C@@H]21 (some centres undefined) shows growth at minimum 50%?
Response given: 0

====

System: NCI-H460 lung
assay_overview: NCI-60 one-dose screen, 48 h (100 = growth as untreated, 0 = no growth, -100 = all killed)
experimental_context: 10 µM unless noted
This is part of a sample that, as a whole, favours compounds with a hit. Of some 83,000 tested, about 20% had one in any assay.
result_type: growth (%)
Give the value, in units of %, as a plain number.

Challenge: Name the recorded growth of the compound listed here: Nc1cccc2c1Oc1ccccc1O2
Response given: 190

Challenge: Tell us which growth value is on record for CCCCNCCc1ccccn1
Response given: 107

Challenge: Given COc1cc(CNCCc2ccc(Cl)cc2)cc(OC)c1O , respond with its growth.
Response given: 83.3

Challenge: Read the entry C/C(=N/OC(=O)N(C)C)c1cc(Cl)ccc1Cl and write its reported growth.
Response given: 105

Challenge: Dear colleague, please send me the reported growth for CCC(C)[C@H]1O[C@]2(C=C[C@@H]1C)C[C@@H]1C[C@@H](C/C=C(\C)[C@@H](OC3C[C@H](OC)C(O[C@H]4C[C@H](OC)[C@@H](O)[C@H](C)O4)[C@H](C)O3)[C@@H](C)/C=C/C=C3\CO[C@@H]4[C@H](O)C(C)=C[C@@H](C(=O)O1)[C@]34O)O2 (some centres not stated) when you can.
Response given: -34.5

Challenge: Specify growth for Cc1nnc([S-])s1.[Au+].c1ccc([PH+](c2ccccc2)c2ccccc2)cc1 and stop.
Response given: 57.3

Challenge: Name the recorded growth of the item COc1ccc(/C=C\c2cc(OC)c(OC)c(OC)c2)cc1N/C=C\C(=O)c1c[nH]c2ccccc12 in your answer.
Response given: 6.44

Challenge: Kindly indicate its recorded growth. Item: COc1cc(C2(C#N)CCN(C)CC2)cc(OC)c1OC
Response given: 102

Challenge: Item O=[N+]([O-])c1ccc(F)c([N+](=O)[O-])c1F : provide growth
Response given: 106

Challenge: Provide only the value of recorded growth for COc1ccc(CN2CCN(Cc3ccccc3)CC2)c(O)c1
Response given: 97

Challenge: Annotate the compound OC1CCCCC1N1CCC(c2ccccc2)CC1 (configuration not stated) with its measured growth.
Response given: 109

Challenge: Return reported growth. Input compound: OC1(c2ccccc2F)c2ccccc2C2=NCCN21 (configuration not stated)
Response given: 118
